Just for reference, patent US20050288283A1 is where these values come from.

measuredOn: H1 histamine receptor (Cavia porcellus, UniProt P31389)
Sequence (P31389 whole entry): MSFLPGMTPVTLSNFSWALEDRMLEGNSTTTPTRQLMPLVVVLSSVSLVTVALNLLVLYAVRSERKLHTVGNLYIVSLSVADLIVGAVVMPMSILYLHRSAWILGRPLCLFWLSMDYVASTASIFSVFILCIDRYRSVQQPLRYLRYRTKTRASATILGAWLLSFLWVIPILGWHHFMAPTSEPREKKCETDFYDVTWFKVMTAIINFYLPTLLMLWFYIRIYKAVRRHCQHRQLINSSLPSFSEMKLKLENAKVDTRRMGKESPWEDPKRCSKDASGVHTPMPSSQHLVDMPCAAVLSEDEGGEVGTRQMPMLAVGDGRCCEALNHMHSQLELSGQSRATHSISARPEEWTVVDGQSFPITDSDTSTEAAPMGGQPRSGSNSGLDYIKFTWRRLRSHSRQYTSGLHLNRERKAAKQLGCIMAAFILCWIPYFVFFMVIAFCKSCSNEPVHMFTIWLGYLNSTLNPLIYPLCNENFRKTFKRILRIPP
endpointLabel: IC50 (nM)
State just the number; it will be interpreted in nM.

Lab note: measured IC50 of `CN(C)CC/C=C1/c2ccccc2COc2ccc(CC(=O)NCCO)cc21` was 1.3
